Reference source for all entries: patent US20200399712A1

Tested on: HPV-16
assayName: qPCR sensitivity against HPV-HNSCC tumor samples diluted among 10 ng normal human DNA
details: Sample # 2
recordedEndpoint: Threshold of tumor cell numbers for HPV-16 detection

Problem: Using the record for BR E1-6: HPV-16 E1 region primer/probe set, SEQ ID NO: 43-45 (nucleic acid, chemistry not given here) DNA 1: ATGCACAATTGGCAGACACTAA DNA 2: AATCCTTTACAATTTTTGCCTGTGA DNA 3: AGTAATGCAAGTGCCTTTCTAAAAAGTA , report its Threshold of tumor cell numbers for HPV-16 detection.
Solution: 150.0 tumor cells

Problem: What about this molecule? BR E1-5: HPV-16 E1 region primer/probe set, SEQ ID NO: 40-42 (same as SEQ ID NO: 1-3) (nucleic acid, chemistry not given here) DNA 1: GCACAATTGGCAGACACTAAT DNA 2: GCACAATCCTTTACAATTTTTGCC DNA 3: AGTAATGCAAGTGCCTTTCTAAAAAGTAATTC
Solution: 150.0 tumor cells

Problem: What about this molecule? E7: previously designed (historical) HPV-16 E7 primers and Taqman probe, SEQ ID NO: 10-12; part of CLIA test (nucleic acid, Taqman probe, labels not given here, part of CLIA test) DNA 1: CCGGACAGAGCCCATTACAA DNA 2: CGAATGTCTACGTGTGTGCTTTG DNA 3: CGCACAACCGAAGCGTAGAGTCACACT
Solution: 30.0 tumor cells
